In this section we review reported glycan array binding signal (z-score) values for a set of binders.
- System Under Test: GlcNAc(b1-4)GlcNAc(b1-4)GlcNAc(b1-4)GlcNAc(b1-4)GlcNAc(b1-4)GlcNAc
- Experiment Description: glycan array binding signal (z-score within array); higher = stronger binding
- Condition Parameters: glycan notation: IUPAC condensed, linker removed
Only a selection was taken, and the strongest signals are over-represented in it overall.
Respond numerically, and do not add a unit to the figure.

Below: 2 binders and their reported glycan array binding signal (z-score).
Binder	glycan array binding signal (z-score)
HML-Native (Hypnea musciformis), P84871 (protein) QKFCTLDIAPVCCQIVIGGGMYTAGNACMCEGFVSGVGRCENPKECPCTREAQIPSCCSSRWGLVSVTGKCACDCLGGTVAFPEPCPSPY	-0.197
EULS2 M3 (Oryza sativa) (protein) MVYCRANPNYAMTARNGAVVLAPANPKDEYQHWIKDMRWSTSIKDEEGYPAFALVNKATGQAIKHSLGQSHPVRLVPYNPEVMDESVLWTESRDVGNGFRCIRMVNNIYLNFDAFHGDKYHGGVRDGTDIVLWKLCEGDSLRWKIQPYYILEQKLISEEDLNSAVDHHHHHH	-0.977

Kindly review the next binder as well.
# get_value(readout='glycan array binding signal (z-score)', item= Microvirin-2 (Microcystis aeruginosa) (protein) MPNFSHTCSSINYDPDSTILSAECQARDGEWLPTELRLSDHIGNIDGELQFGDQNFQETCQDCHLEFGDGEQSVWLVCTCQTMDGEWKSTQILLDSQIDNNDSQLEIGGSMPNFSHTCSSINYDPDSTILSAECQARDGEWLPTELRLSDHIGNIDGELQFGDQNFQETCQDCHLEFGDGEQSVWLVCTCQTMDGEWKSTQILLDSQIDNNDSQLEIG )
-0.135

The measured values listed here are drawn from the supplement of paper PMC8728848.
